These entries and their values trace back to patent US8350077B2.

assay: in vitro; conditions: human, plasma
measurement.name: remaining at 0.5 h (%)
Numbers only here, please. The scale is %.

Req: Form field: reported remaining at 0.5 h of CCOC(=O)CNC(=O)[C@H](CCCNC(=N)N)NC(=O)[C@H](Cc1ccccc1)NC(=O)CN(C)C(=N)N
Resp: 94

----------
assay: in vitro; conditions: rat, plasma
measurement.name: remaining at 3 h (%)
Your answer is read as %, so omit the unit and give the number.

Req: Please give the measured remaining at 3 h for this molecule: CCOC(=O)CNC(=O)[C@H](CCCNC(=N)N)NC(=O)[C@H](Cc1ccccc1)NC(=O)CN(C)C(=N)N
Resp: 85
